- System: Human immunodeficiency virus 1
- test: Inhibition of HIV-1 replication in human T-cell by using XTT assay.
- Assay type: functional
Overview of reported TI50 across a group of molecules:
endpointName: TI50

• O=S(=O)(SC1=NCCN1)c1ccccc1 = 4.3
• COC(=S)SSC(=S)N(CC/N=C(/S)SSC(=S)OC)CC/N=C(\S)SSC(=S)OC = 2.6
• COc1cc(SSc2cc(OC)cc([N+](=O)[O-])c2N)c(N)c([N+](=O)[O-])c1 = 8.5
• N=C(N)Nc1ccccc1SSc1ccccc1N=C(N)N = 32
• Cc1cc(C(=O)O)c(C)cc1SSc1cc(C)c(C(=O)O)cc1C = 3.6
• Cc1cc(S(=O)(=O)C2=NC(Nc3ccccc3)NN2)c(SSc2cc(Cl)c(C)cc2S(=O)(=O)C2=NC(Nc3ccccc3)NN2)cc1Cl (stereo not drawn) = 15.7
• O=C(O)c1cccc(SS(=O)(=O)c2cccc(C(=O)O)c2)c1 = 13.7
• CC1(C)CC2=NC(SSC3=C(C#N)C(c4ccc(Br)cc4)C4=C(O)CC(C)(C)CC4=N3)=C(C#N)C(c3ccc(Br)cc3)C2=C(O)C1 (stereo not drawn) = 3.4
